Recorded values, source PubChem BioAssay (NCI).

test system: M14 melanoma; assay: NCI tumour cell line growth inhibition, 48 h; in the data active means GI50 below about 0.43 µM; inactive means the rest
Outcomes: T (active), F (inactive)

molecule | label
COc1cc2cnc3c(c2cc1OC)Cc1cc2c(cc1-3)OCO2 | T
Clc1cc(Cl)cc(N2N=C(c3cccc(Nc4ccncc4)c3)CC2c2ccc(Br)cc2)c1 (stereo not drawn) | F
COc1ccc(C(=O)/C=C/c2cc(C(=O)c3cc(OC)c(OC)c(OC)c3)ccc2OC)cc1 | F

###

test system: TK-10 renal; assay: NCI tumour cell line growth inhibition, 48 h

compound | TGI
O=C(Nc1ccc2oc(=O)c(C(=O)O)cc2c1)Oc1ccccc1 | > 100 µM
Cc1ccc(N2C(=O)CC(=O)N(NC(=O)C(C)Oc3ccccc3C)C2=S)cc1 (stereo not drawn) | > 100 µM
CN(C)c1ccc(/C=C2\N=C(c3ccc(N)cc3)OC2=O)cc1 | > 100 µM
